procedure_text: label from the status in PepcDB records
quantity: protein production

Some sequences with recorded protein production:
MSLKFENTGLENQTVELSRLDDIMERLGFVRAAQWDYERVTYDRKYVVKEGTYYLRVQGYAIEGNVDSRYALIKLLTPIMGKHYYPHGVEYGDDEHFPSSLVSQCQNVLAQVKSELEKIKEEGHHHHHH | not failed
LLTRQLEKSRQQQQLMVAIALIIRQSLKLEDILSVTVAEVRQFLQADRVLIYQFQPDMSGIVVAESILPGWIATKGAQIEDKCFQDSAGHNHQLKKRAINDIYQAGLTNCYLELLEQFQVKATLIVPIMVTNKSWGLLIAHQCAAPHHWQSFELDLLEQLAVQIAIAIQQASAYEQIQTELQERKRVEATLRESEQRFRQMADTAPVLIWMSGL | failed
MPVRVSLELLRVGHCRHCERMVRADGHWHAVEFPALSVLIRHPQRGALLYDTGYAAHFFRATDAWPERLYRLTTPVRLPAHETLGAQLSKRGVALDDIAWCLISHFHADHVGGLRDLPNARFMCSRADHQQLRSCSRVGGLRRALLPQLLPDDFDQRLQFADQAPQRALTGAWQGLGPAYDLFEDGSVLAVSLPGHVPGQMGLRVRDQHDREVLLCADAVWSSATWATLQWPAWPTRLLMHDWHAFQRTVHRLHALSHAHPELAILPSHCQPSLDRYQPEWR | failed
KRVFGFVSAKGGDGGSCIAANFAFALSQEPDIHVLAVDISLPFGDLDMYLSGNTHSQDLADISNASDRLDKSLLDTMVQHISPSLDLIPSPATFEKIVNIEPERVSDLIHIAASFYDYIIVDFGASIDHVGVWVLEHLDELCIVTTPSLQSLRRAGQLLKLCKEFEKPISRIEIILNRADTNSRITSDEIEKVIGRPISKRIPQDEDAMQESLLSGQSVLKVAPKSQLSKTIVDWALHLNGV | not failed
MRISKMLVTELNIYPLKSARGIALKESAVSAEGLPGDRRAMLTDPSGHFITQRELPAIATVLARHEDGGMALSRERSGEIFARPSGQRMDVAVWKSIVSANIADDETNDTLSAWLGREVKLVFFDDAAKRIASLEWTGNETPVTFADGYQILVTTTASLAALNDNMRGNGEDAVGMERFRPNIVLETEEAWAEDRWAAIEIGGIRFDLVKPCARCIMTTQDQMTGSRDVPSPMKAMGRIRMSGDRRVPGPLFGWNVTPRGEGRLSVGDVARVVEERPEGWAIKRRLEHHHHHH | not failed

Value of protein production reported for the sequence "MESEKKIAHEIGGVKNDALRFGLHGVKSNIIGSHPLESSYESEKKSKEALKRTVIAHAYGTALPLKMDMDRQILSRFQRPPGPIPSSMLGLEVYTGAVDDFGFEDYLNDPRDSETFKPVDFHHGMEVRLGISKGPIYPSFM" is failed

Value of protein production reported for the sequence "MEIRMAAAADFAEIWPLFQAVISSGDTYVFTPDTPEQDAYDYWFGAGVRCWVAVHEGRVVGMYKLIDNQRGLGNHVANASFMVDGEARGLGIGKALGLHCIKQATDLGYRAIQFNFVVSTNTLAVALWQKLGFEIIATLPGAFNHSQLGYVDAYVMHRALLPN" is failed
